# key: entry, value: IC50
- Subject of test: recombinant human EGFR exon 19 deletion/C797S double mutant protein (Homo sapiens (Human), UniProt P00533, C797S/DEL746-750)
- Sequence (P00533 other isoform, or with tags, fused parts or gaps C797S/del 1-668/del 746-750 limits assumed): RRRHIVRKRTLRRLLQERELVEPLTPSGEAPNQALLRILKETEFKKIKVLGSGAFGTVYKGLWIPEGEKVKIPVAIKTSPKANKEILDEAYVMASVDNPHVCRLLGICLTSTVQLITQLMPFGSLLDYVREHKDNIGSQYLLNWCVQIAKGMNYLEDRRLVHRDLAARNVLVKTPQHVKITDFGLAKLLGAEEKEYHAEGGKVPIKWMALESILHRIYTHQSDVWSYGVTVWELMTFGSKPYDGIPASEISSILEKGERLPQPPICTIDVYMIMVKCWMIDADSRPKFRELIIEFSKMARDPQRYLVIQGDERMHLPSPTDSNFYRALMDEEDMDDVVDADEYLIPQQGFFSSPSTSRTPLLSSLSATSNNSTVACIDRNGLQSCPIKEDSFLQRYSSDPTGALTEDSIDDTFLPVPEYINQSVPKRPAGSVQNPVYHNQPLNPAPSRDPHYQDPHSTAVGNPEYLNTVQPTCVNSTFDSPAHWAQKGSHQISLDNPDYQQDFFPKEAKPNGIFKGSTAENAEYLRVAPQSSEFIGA
- Protocol description: Biological Activity Assay C: biochemical assay against EGFR exon 19 deletion/C797S protein (EGFR d19/CS)
Quantity kind: IC50 (nM)

[[record]]
molecule = "CC(C)(O)CCc1nc(-c2ccc(F)cc2)c(-c2ncnc3sc(-c4ccccc4)cc23)o1 [Example 66]"
experimental_value = 8.12

[[record]]
molecule = "CC(=O)N1CC=C(c2cc3c(-c4cn(C5CS(=O)(=O)C5)nc4-c4ccc(F)cc4)ncnc3o2)CC1 [Example 108]"
experimental_value = 0.45

[[record]]
molecule = "Fc1ccc(-c2nn([C@@H]3CCOC[C@H]3F)cc2-c2ncnc3oc(-c4ccccc4)cc23)cc1 (single isomer, unassigned) [Example 153]"
experimental_value = 1.04

[[record]]
molecule = "CS(=O)(=O)[C@H]1C[C@@H](n2cc(-c3ncnc4oc(-c5ccccc5)cc34)c(-c3ccc(F)cc3)n2)C1 [Example 163]"
experimental_value = 0.27

[[record]]
molecule = "CC1(C)CC(Cn2cc(-c3ncnc4oc(-c5ccccc5)cc34)c(-c3ccc(F)cc3)n2)O1 (stereo not shown) [Example 220]"
experimental_value = 0.55

[[record]]
molecule = "Fc1ccc(-c2nn(CC3(F)COC3)cc2-c2ncnc3oc(-c4ccccc4)cc23)cc1 [Example 32]"
experimental_value = 1.26

[[record]]
molecule = "O=S1(=O)CC(n2cc(-c3ncnc4oc(-c5cccc(CN6CCOCC6)c5)cc34)c(-c3ccc(F)cc3)n2)C1 [Example 190]"
experimental_value = 0.18


---

- Subject of test: recombinant human EGFR exon 19 deletion/C797S double mutant protein (Homo sapiens (Human), UniProt P00533, C797S/DEL746-750)
- Protocol description: Biological Activity Assay C: biochemical assay against EGFR exon 19 deletion/C797S protein (EGFR d19/CS)
Label yes when IC50 is strictly below 2 nM; at or above that, label no.

[[record]]
molecule = "CS(=O)(=O)NCCn1cc(-c2ncnc3oc(-c4ccccc4)cc23)c(-c2ccc(F)cc2)n1"
class_label = "yes"

[[record]]
molecule = "O=S1(=O)CC(n2cc(-c3ncnc4oc(C#CC5CCC5)cc34)c(-c3ccc(F)cc3)n2)C1"
class_label = "no"

[[record]]
molecule = "OCCCn1cc(-c2ncnc3[nH]c(-c4ccccc4)cc23)c(-c2ccc(F)cc2)n1"
class_label = "yes"

[[record]]
molecule = "O=S1(=O)CC(n2cc(-c3ncnc4oc(-c5ccns5)cc34)c(-c3ccc(F)cc3)n2)C1"
class_label = "yes"

[[record]]
molecule = "CC1(C)C[C@H](Cn2cc(-c3ncnc4oc(-c5ccccc5)cc34)c(-c3ccc(F)cc3)n2)O1 (single isomer, unassigned)"
class_label = "yes"

[[record]]
molecule = "CC(C)(C)OC(=O)N1C=C(c2cc3c(-c4cn(C5CS(=O)(=O)C5)nc4-c4ccc(F)cc4)ncnc3o2)CCC1"
class_label = "no"

[[record]]
molecule = "CC(=O)N1CCC(n2cc(-c3ncnc4oc(-c5ccccc5)cc34)c(-c3ccc(F)cc3)n2)C1 (stereo not drawn)"
class_label = "yes"

[[record]]
molecule = "Fc1ccc(-c2nn([C@H]3C[C@H](F)C3)cc2-c2ncnc3oc(-c4ccccc4)cc23)cc1"
class_label = "yes"

[[record]]
molecule = "CN1CCN(c2ccc(-c3cc4c(-c5nn(CCCO)nc5-c5ccc(F)cc5)ccnc4[nH]3)cc2)CC1"
class_label = "yes"

[[record]]
molecule = "CC(C)(O)CCn1ncc(-c2ncnc3oc(-c4ccccc4)nc23)c1-c1ccc(F)cc1"
class_label = "no"

[[record]]
molecule = "Cn1ccnc1-c1cc2c(-c3cn(C4CS(=O)(=O)C4)nc3-c3ccc(F)cc3)ncnc2o1"
class_label = "yes"

[[record]]
molecule = "CS(=O)(=O)[C@H]1CC[C@@H](n2cc(-c3ncnc4oc(-c5ccccc5)cc34)c(-c3ccc(F)cc3)n2)C1 (single isomer, unassigned)"
class_label = "yes"

[[record]]
molecule = "O=C(c1ccccc1)N1CC=C(c2cc3c(-c4cn(C5CS(=O)(=O)C5)nc4-c4ccc(F)cc4)ncnc3o2)CC1"
class_label = "yes"

[[record]]
molecule = "O=S1(=O)CC(Cn2ncc(-c3ncnc4oc(-c5ccccc5)cc34)c2-c2ccc(F)cc2)C1"
class_label = "no"

[[record]]
molecule = "OCCCn1cc(-c2ncnc3oc(-c4ccccc4)nc23)c(-c2ccc(F)cc2)n1"
class_label = "yes"

